Reference for the values: PubChem BioAssay AID1963978

Entries and their measured viability, T/C follow.
System: 616215-338-R-J1-PDC spheroids with HUVEC/MSC, viability;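 note: spheroids exposed to agents for seven days before the viability read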
Assay: Anticancer human tumor 616215-338-R-J1-PDC patient-derived colon adenocarcinoma cell line growth inhibition [PI3K]
Conditions: second compound 0.0316 µM; first compound 3.16 µM; hits give low values
The figure you give is taken to be in %; do not add the unit.

Look over these answered cases.
{"columns": ["compound", "metric", "output unit", "measured value"],
 "data": [
  ["CC(Cn1ccc(-c2ccc(C#N)c(Cl)c2)n1)NC(=O)c1cc(C(C)O)[nH]n1 (stereo not drawn) + COc1c(OCCCN2CCOCC2)ccc2c3n(c(=NC(=O)c4cnc(N)nc4)nc12)CCN3", "viability, T/C", "%", 93.2],
  ["Cn1ncc(Cl)c1-c1cc(C(=O)NC(CN)Cc2cccc(F)c2)sc1Cl (stereo not drawn) + Cc1nc(NC(=O)N2CCCC2C(N)=O)sc1-c1ccnc(C(C)(C)C(F)(F)F)c1", "viability, T/C", "%", 82.5]
]}

Could you share which viability, T/C value was measured for C=CC(=O)N1CCN(c2nc(=O)n(-c3c(C)ccnc3C(C)C)c3nc(-c4c(O)cccc4F)c(F)cc23)C(C)C1 (stereo not drawn) + CC(Nc1ncnc2nc[nH]c12)c1cc2cccc(Cl)c2c(=O)n1-c1ccccc1 ?
93.3
